- TGT: human recombinant Glo-I (rhGlo-I) (Homo sapiens)
- Sequence (Q04760 2-184 limits assumed): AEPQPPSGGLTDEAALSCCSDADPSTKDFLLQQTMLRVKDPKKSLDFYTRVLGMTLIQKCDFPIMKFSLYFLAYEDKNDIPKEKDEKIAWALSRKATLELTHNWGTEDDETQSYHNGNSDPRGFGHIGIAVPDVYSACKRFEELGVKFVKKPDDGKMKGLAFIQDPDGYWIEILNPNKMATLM
- ASSAY_NAME: In vitro Glo-I enzyme inhibition assay (UV-Vis, 240 nm)
- EXPERIMENTAL_CONTEXT: rhGlo-I, triplicates, 240 nm, 200 s, 25 °C, pH 7.0–7.2
PROPERTY: IC50 (µM)
Give bare numbers, in µM.

Use these answered entries as a reference point.
Need IC50, item c1cc(-c2csnn2)ccc1OCc1c(COc2ccc(-c3csnn3)cc2)c(COc2ccc(-c3csnn3)cc2)c(COc2ccc(-c3csnn3)cc2)c(COc2ccc(-c3csnn3)cc2)c1COc1ccc(-c2csnn2)cc1 [Compound 12]
2.67

Item: c1cc(-c2c[se]nn2)ccc1OCc1c(COc2ccc(-c3c[se]nn3)cc2)c(COc2ccc(-c3c[se]nn3)cc2)c(COc2ccc(-c3c[se]nn3)cc2)c(COc2ccc(-c3c[se]nn3)cc2)c1COc1ccc(-c2c[se]nn2)cc1 [Compound 11]
8.3

Item: c1c(COc2ccc(-c3csnn3)cc2)cc(COc2ccc(-c3csnn3)cc2)cc1COc1ccc(-c2csnn2)cc1 [Compound 8]
3

Moving on to the next compound.
Need IC50, item c1cc(-c2csnn2)ccc1OCc1cc(COc2ccc(-c3csnn3)cc2)c(COc2ccc(-c3csnn3)cc2)cc1COc1ccc(-c2csnn2)cc1 [Compound 10]
2.4
